All figures here come from patent US10058533B2.

Test system: factor Xa
Assay: Plasma anti-factor Xa activity, rabbit wound-limb deep venous thrombosis forming model
Type: in vivo
Conditions: plasma, 5 mg/kg i.g., 0.5 h after administration, x ± SD
Would you kindly list anti-factor Xa activity for each of these molecules?
One number for each entry, in IU/ml.

In the examples that follow, each entry is paired with its recorded anti-factor Xa activity.
molecule: O=C(NC[C@H]1CN(c2ccc(N3CCOCC3=O)cc2)C(=O)O1)c1ccc(Cl)s1
unit.abbreviation: IU/ml
anti-factor Xa activity: 0.37
//
molecule: COc1ccc(-n2nc(C(N)=O)c3c2C(=O)N(c2ccc(N4CCCCC4=O)cc2)CC3)cc1
unit.abbreviation: IU/ml
anti-factor Xa activity: 0.16
//
molecule: CN(C)Cc1nccn1-c1ccc(NC(=O)c2cc(C(F)(F)F)nn2-c2ccc3onc(N)c3c2)c(F)c1
unit.abbreviation: IU/ml
anti-factor Xa activity: 0.20

Sample CC1C(=O)OC2C(O)C34C5CC(C(C)(C)C)C36C(OC(=O)C6O)OC4(C(=O)O5)C12O (stereo not shown) [Ginkgolide B] — what was its anti-factor Xa activity? 0.08
